Test system: RAW-Dual
Assay Comment: NF-kB SEAP reporter activity, fold change vs agonist alone; cytotoxicity flag (confluency mask): not cytotoxic; higher = enhanced NF-kB activity
Details: agonist: ODN 1826 (TLR9) 0.5 ug/mL
The full ranking holds about 2,900 compounds; the median of “NF-kB SEAP reporter activity, fold change vs agonist alone” is about 0.99, and the highest 2% start at about 2.6. What follows is part of a selection rich in the highest values, with near analogues and random picks from the rest.
If the reported NF-kB SEAP reporter activity equals or exceeds 0.9, assign Met. If not, assign Not met.

Solved cases below.
>>> class_label("COc1cc(C(=O)N(CCCc2ccccc2)Cc2ccc(CC(=O)O)cc2)cc(OC)c1C (library stock concentration (final ~1000-fold dilution): 10 mM)")
"Met"
>>> class_label("COC1OC(COS(=O)(=O)O)C(OC2OC(C(=O)O)C(OC3OC(COS(=O)(=O)O)C(OC4OC(C(=O)O)C(OC5OC(COS(=O)(=O)O)C(O)C(O)C5NS(=O)(=O)O)C(O)C4O)C(OS(=O)(=O)O)C3NS(=O)(=O)O)C(O)C2OS(=O)(=O)O)C(O)C1NS(=O)(=O)O (stereo not given) (library stock concentration (final ~1000-fold dilution): 10 mM water)")
"Met"
>>> class_label("CN1C2CCC1CC(OC(c1ccccc1)c1ccccc1)C2.CS(=O)(=O)O (stereo not given) (library stock concentration (final ~1000-fold dilution): 10 mM)")
"Not met"
>>> class_label("COc1cc2c(cc1OC)CN(C(=O)/C=C/c1c(-c3ccccc3)n(C)c3ncccc13)CC2.Cl (library stock concentration (final ~1000-fold dilution): 10 mM)")
"Met"
>>> class_label("CC(C)C1C(=O)NC(CCCNC(=N)N)C(=O)NCC(=O)NC(CC(=O)O)C(=O)NC(Cc2ccccc2)C(=O)N1C.O=C(O)C(F)(F)F (stereo not given) (library stock concentration (final ~1000-fold dilution): 10 mM)")
"Met"

Q) Is reported NF-kB SEAP reporter activity greater than or equal to 0.9 here: CC(=O)OC(CC=C(C)C)C1=CC(=O)c2c(O)ccc(O)c2C1=O (stereo not given) (library stock concentration (final ~1000-fold dilution): 2 mM)
A) Not met

Q) Is reported NF-kB SEAP reporter activity greater than or equal to 0.9 here: CC(C)Oc1ccc(C(=O)NC(CNC(=O)CN(C)C)Cc2ccc(-c3cn4cccc(C(C)O)c4n3)cc2)cc1Cl (stereo not given) (library stock concentration (final ~1000-fold dilution): 10 mM)
A) Not met

Q) Is reported NF-kB SEAP reporter activity greater than or equal to 0.9 here: O=C(O)CN1C(=O)c2cccc3cccc(c23)C1=O (library stock concentration (final ~1000-fold dilution): 10 mM)
A) Met

Q) Is reported NF-kB SEAP reporter activity greater than or equal to 0.9 here: O=c1c(-c2ccc(O)cc2)coc2cc(OC3OC(CO)C(O)C(O)C3O)ccc12 (stereo not given) (library stock concentration (final ~1000-fold dilution): 10 mM)
A) Met

Q) Is reported NF-kB SEAP reporter activity greater than or equal to 0.9 here: O=C(NO)c1ccc(CC(=O)N(CCO)c2ccccc2)cc1 (library stock concentration (final ~1000-fold dilution): 10 mM)
A) Met
